B1: DUSP5 (parent)
chain: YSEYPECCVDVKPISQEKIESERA

# Variants of: B1
# method.summary: protein stability index of a GFP-peptide fusion (GPS, HEK-293T) (PSI 1-6); higher = more stable;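 note: lentivirally expressed fusions sorted by FACS into six bins by GFP to DsRed ratio, PSI derived from sequencing read proportions per bin multiplied by bin number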
# experimental.parameters: c terminus: a fixed tail appended
Measured protein stability index, listed per entry.
Give only the figure.

query.sequence	protein stability index
YSEYPECCVDVKHISQEKIESERA	4.03

May I ask what protein stability index has been recorded for YSEYPECCYDVKPISQEKIESERA ? 4.04

Can you handle YSEYPECCVDVKPISQEKIYSERA next? 4.1

Also YSEYPECCVDVKPISQQKIESERA , if possible. 3.97
